Data origin: the supplement of paper PMC11061612

test system: C-33-A (Cervical Carcinoma); experiment: combination Emax (second highest fraction inhibited in the dose matrix, 72 h); higher = more inhibition; extreme values may be limits of the assay
value kind: combination Emax
Numbers only.

- CN(C)CCCOc1ccc(-c2ccc3ncc4c(c3c2)n(C2CCOCC2)c(=O)n4C)cn1 [AZD0156] + C[C@@H]1COCCN1C2=NC(=NC(=C2)C3(CC3)[S@](=N)(=O)C)C4=C5C=CNC5=NC=C4 [AZD6738] (first compound max 1 µM, 7x7, partner max 10 µM): 0.886

Please go through the list and note combination Emax for each compound.
1. CS(=O)(=O)CCNCc1ccc(-c2ccc3ncnc(Nc4ccc(OCc5cccc(F)c5)c(Cl)c4)c3c2)o1 [Lapatinib] + NC1(c2ccc(-c3nc4ccn5c(=O)[nH]nc5c4cc3-c3ccccc3)cc2)CCC1 [MK-2206] (first compound max 10 µM, 7x7, partner max 10 µM)
2. CCc1c2c(nc3ccc(O)cc13)-c1cc3c(c(=O)n1C2)COC(=O)[C@]3(O)CC [SN-38] + O=C(c1cc(Cc2n[nH]c(=O)c3ccccc23)ccc1F)N1CCN(C(=O)C2CC2)CC1 [Olaparib] (first compound max 0.3 µM, 7x7, partner max 10 µM)
3. C[C@@H](Oc1cc(-c2cnn(C3CCNCC3)c2)cnc1N)c1c(Cl)ccc(F)c1Cl [Crizotinib] + CC1=C(C(=CC=C1)Cl)NC(=O)C2=CN=C(S2)NC3=CC(=NC(=N3)C)N4CCN(CC4)CCO [Dasatinib] (first compound max 10 µM, 7x7, partner max 2 µM)
4. CC1(C)CCC(CN2CCN(c3ccc(C(=O)NS(=O)(=O)c4ccc(NCC5CCOCC5)c([N+](=O)[O-])c4)c(Oc4cnc5[nH]ccc5c4)c3)CC2)=C(c2ccc(Cl)cc2)C1 [Venetoclax] + CS(=O)(=O)CCNCc1ccc(-c2ccc3ncnc(Nc4ccc(OCc5cccc(F)c5)c(Cl)c4)c3c2)o1 [Lapatinib] (first compound max 1 µM, 7x7, partner max 10 µM)
5. CC1(C)CCC(CN2CCN(c3ccc(C(=O)NS(=O)(=O)c4ccc(NCC5CCOCC5)c([N+](=O)[O-])c4)c(Oc4cnc5[nH]ccc5c4)c3)CC2)=C(c2ccc(Cl)cc2)C1 [Venetoclax] + CN(C)CCCOc1ccc(-c2ccc3ncc4c(c3c2)n(C2CCOCC2)c(=O)n4C)cn1 [AZD0156] (first compound max 1 µM, 7x7, partner max 1 µM)

# output
0.895
0.747
0.582
0.444
0.494

Please report combination Emax for every entry that follows.
1. Cc1c2c(nn1C)CSCc1cc(n(C)n1)CSc1cc(c3ccccc3c1)OCCCc1c(C(=O)O)n(C)c3c-2c(Cl)ccc13 [AZD5991] + CC1(C)CCC(CN2CCN(c3ccc(C(=O)NS(=O)(=O)c4ccc(NCC5CCOCC5)c([N+](=O)[O-])c4)c(Oc4cnc5[nH]ccc5c4)c3)CC2)=C(c2ccc(Cl)cc2)C1 [Venetoclax] (first compound max 1 µM, 7x7, partner max 1 µM)
2. NC1(C(=O)N[C@@H](CCO)c2ccc(Cl)cc2)CCN(c2ncnc3[nH]ccc23)CC1 [Capivasertib] + CC(=O)c1c(C)c2cnc(Nc3ccc(N4CCNCC4)cn3)nc2n(C2CCCC2)c1=O [Palbociclib] (first compound max 10 µM, 7x7, partner max 10 µM)
3. CCN(CCO)CCCOc1ccc2c(Nc3cc(CC(=O)Nc4cccc(F)c4)[nH]n3)ncnc2c1 [AZD2811] + C[C@@H]1COCCN1C2=NC(=NC(=C2)C3(CC3)[S@](=N)(=O)C)C4=C5C=CNC5=NC=C4 [AZD6738] (first compound max 1 µM, 7x7, partner max 10 µM)
4. CC1(C)CCC(CN2CCN(c3ccc(C(=O)NS(=O)(=O)c4ccc(NCC5CCOCC5)c([N+](=O)[O-])c4)c(Oc4cnc5[nH]ccc5c4)c3)CC2)=C(c2ccc(Cl)cc2)C1 [Venetoclax] + C[C@@H]1COCCN1C2=NC(=NC(=C2)C3(CC3)[S@](=N)(=O)C)C4=C5C=CNC5=NC=C4 [AZD6738] (first compound max 1 µM, 7x7, partner max 10 µM)
5. N#Cc1cnc(Nc2cc(NC[C@H]3CNCCO3)c(C(F)(F)F)cn2)cn1 [SRA737] + C=CCn1c(=O)c2cnc(Nc3ccc(N4CCN(C)CC4)cc3)nc2n1-c1cccc(C(C)(C)O)n1 [AZD1775] (first compound max 10 µM, partner max 1 µM)

# output
1. 0.484
2. 0.679
3. 0.87
4. 0.92
5. 0.97

Each compound below has a recorded value; state its combination Emax.
1. Cn1cnc2c(F)c(Nc3ccc(Br)cc3Cl)c(C(=O)NOCCO)cc21 [Selumetinib] + C=CCn1c(=O)c2cnc(Nc3ccc(N4CCN(C)CC4)cc3)nc2n1-c1cccc(C(C)(C)O)n1 [AZD1775] (first compound max 10 µM, partner max 1 µM)
2. COc1cc2c(cc1OCCCCCOc1cc3c(cc1OC)C(=O)N1C=C(C)C[C@H]1C=N3)N=C[C@@H]1CC(C)=CN1C2=O [SG3199] + O=C(c1cc(Cc2n[nH]c(=O)c3ccccc23)ccc1F)N1CCN(C(=O)C2CC2)CC1 [Olaparib] (first compound max 0.001 µM, 7x7, partner max 10 µM)

# output
[0.93, 0.189]
